Could you please report measured Ki for the items listed next?
- measured-on: "Na^+ channel site 2" binding site
- assay-summary: Affinity to the "Na^+ channel site 2" binding site
- assay-context: typically at a test concentration of 10 μM
Entry rule: numbers only, all in nM.

input: What value of Ki has been recorded for this entry: CN(C)CCOc1ccccc1C1NC(=O)N(c2ccccc2)C1=O (centres unmarked) [Example 21]
output: 710

input: What value of Ki has been recorded for this entry: CN(C)CCOc1ccccc1-c1cn(-c2ccccc2)c(=O)[nH]1 [Example 22]
output: 1300

input: What value of Ki has been recorded for this entry: CN(C)CCOc1ccccc1-c1nc(-c2ccccc2)c[nH]1 [Example 25]
output: 1300

input: What value of Ki has been recorded for this entry: CN(C)CCOc1ccccc1-c1cnc(-c2ccccc2)o1 [Example 10]
output: 990

input: What value of Ki has been recorded for this entry: CN(C)CCOc1ccccc1-c1ccc(-c2ccccc2)[nH]1 [Example 24]
output: 460

input: What value of Ki has been recorded for this entry: CN(C)CCOc1ccccc1N1C(=O)NC(c2ccccc2)C1=O (centres unmarked) [Example 19]
output: 550

input: What value of Ki has been recorded for this entry: CN(C)CCOc1ccccc1-n1cc(-c2ccccc2)[nH]c1=O [Example 20]
output: 360

input: What value of Ki has been recorded for this entry: CN(C)CCOc1ccccc1-c1n[nH]c(-c2ccccc2)n1 [Example 7]
output: 1200

input: What value of Ki has been recorded for this entry: COc1ccccc1-c1cnn(-c2ccccc2)c1 [Example 17, 4-(2-methoxyphenyl)-1-phenyl-pyrazole]
output: 390

input: What value of Ki has been recorded for this entry: CN(C)CCOc1ccccc1-c1nc(-c2ccccc2)nn1C [Example 23]
output: 1400

input: What value of Ki has been recorded for this entry: CN(C)CCOc1ccccc1-c1ncn(-c2ccccc2)n1 [Example 5]
output: 700
